measurement protocol: Selectivity index, ratio of CC50 for human MT2 cells to EC50 for HIV NL4.3 harboring renilla luciferase infected in human MT2 cells
Assay type: toxicity, cell-based
test settings: read-out: Ratio CC50/EC50
reported property: selectivity ratio

Request: Need selectivity ratio of `CC(=O)O[C@@]12C[C@@H](C)[C@@]3(O)[C@@H](C=C(CO)C[C@]4(O)C(=O)C(C)=C[C@@H]34)[C@@H]1C2(C)C` , thanks.
Result: > 22

Request: `C/C=C(\C)C(=O)O[C@@H]1[C@@H](C)[C@]2(O)[C@@H]3C=C(C)C(=O)[C@H]3CC(CO)=C[C@H]2[C@@H]2C(C)(C)[C@]12OC(=O)C(C)C` , same question.
Result: > 3920

Request: `C/C=C(\C)C(=O)O[C@@H]1[C@@H](C)[C@]2(O)[C@@H]3C=C(C)C(=O)[C@@H]3CC(CO)=C[C@H]2[C@@H]2C(C)(C)[C@]12OC(=O)C(C)C` , same question.
Result: > 12

Request: `CC(=O)O[C@@H]1[C@@H](C)[C@]2(O)[C@@H]3C=C(C)C(=O)[C@H]3CC(CO)=C[C@H]2[C@@H]2C(C)(C)[C@]12OC(=O)C(C)C` , same question.
Result: > 919

----------
measurement protocol: Selectivity index, ratio of CC50 for African green monkey Vero cells to EC50 for Chikungunya virus Indian ocean strain 899 infected in African green monkey Vero cells
Format: toxicity
test settings: read-out: Ratio CC50/EC50
The label depends only on selectivity ratio: TRUE if it is at least 400, FALSE if it is smaller.

Request: Does selectivity ratio meet or surpass 400 for `C/C=C(\C)C(=O)O[C@@H]1[C@@H](C)[C@]2(O)[C@@H]3C=C(C)C(=O)[C@H]3CC(CO)=C[C@H]2[C@@H]2C(C)(C)[C@]12OC(=O)C(C)C` ?
Result: FALSE

Request: `CC(=O)O[C@@]12C[C@@H](C)[C@@]3(O)[C@@H](C=C(CO)C[C@]4(O)C(=O)C(C)=C[C@@H]34)[C@@H]1C2(C)C` , same question.
Result: FALSE

Request: CCCCCCCCCCCCCC(=O)O[C@@H]1[C@@H](C)[C@@]2(O)[C@@H](C=C(CO)C[C@]3(O)C(=O)C(C)=C[C@@H]23)[C@@H]2C(C)(C)[C@]12OC(C)=O [PHORBOL MYRISTATE ACETATE] , same question.
Result: TRUE

Request: `C/C=C(\C)C(=O)O[C@@H]1[C@@H](C)[C@]2(O)[C@@H]3C=C(C)C(=O)[C@@H]3CC(CO)=C[C@H]2[C@@H]2C(C)(C)[C@]12OC(=O)C(C)C` , same question.
Result: FALSE
